Data origin, for the record: patent US20240084003A1

tested-system: T1, human CD22, endogenous on Raji cells (human, UniProt P20273 20-847)
T1 construct: whole, on cells; Endogenous protein of the Raji cell line
T1 sequence (looked up): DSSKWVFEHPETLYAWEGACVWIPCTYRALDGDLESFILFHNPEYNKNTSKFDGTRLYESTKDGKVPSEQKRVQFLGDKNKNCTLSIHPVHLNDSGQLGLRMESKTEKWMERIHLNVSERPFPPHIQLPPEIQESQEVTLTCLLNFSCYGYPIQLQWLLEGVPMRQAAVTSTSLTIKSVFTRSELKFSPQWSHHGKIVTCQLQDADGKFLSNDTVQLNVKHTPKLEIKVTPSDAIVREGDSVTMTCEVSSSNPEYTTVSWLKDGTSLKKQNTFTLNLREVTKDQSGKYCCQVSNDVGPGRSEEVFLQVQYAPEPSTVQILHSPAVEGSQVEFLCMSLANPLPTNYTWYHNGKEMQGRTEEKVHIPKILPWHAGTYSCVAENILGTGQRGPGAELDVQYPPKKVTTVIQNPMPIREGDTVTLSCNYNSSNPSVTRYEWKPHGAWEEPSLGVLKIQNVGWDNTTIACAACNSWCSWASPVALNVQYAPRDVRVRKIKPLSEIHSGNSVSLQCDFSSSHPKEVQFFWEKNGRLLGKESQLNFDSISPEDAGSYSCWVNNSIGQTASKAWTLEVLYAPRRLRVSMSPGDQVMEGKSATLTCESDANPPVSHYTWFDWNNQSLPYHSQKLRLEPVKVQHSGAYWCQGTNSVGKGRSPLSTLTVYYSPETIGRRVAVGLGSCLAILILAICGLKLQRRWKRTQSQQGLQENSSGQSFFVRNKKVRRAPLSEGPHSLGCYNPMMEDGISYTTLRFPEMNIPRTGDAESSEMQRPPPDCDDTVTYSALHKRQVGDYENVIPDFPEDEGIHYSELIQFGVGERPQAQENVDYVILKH
assay-explanation: FACS, Raji cells
pEC50: −log10 of the molar value.

- binder: "F2.173.9 human-murine chimeric antibody (antibody, human IgG1, lambda, V domains shown, Chimeric, human IgG1 / lambda) VH: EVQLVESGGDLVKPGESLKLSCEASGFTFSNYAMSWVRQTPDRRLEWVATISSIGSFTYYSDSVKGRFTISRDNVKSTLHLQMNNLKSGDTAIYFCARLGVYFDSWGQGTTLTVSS VL: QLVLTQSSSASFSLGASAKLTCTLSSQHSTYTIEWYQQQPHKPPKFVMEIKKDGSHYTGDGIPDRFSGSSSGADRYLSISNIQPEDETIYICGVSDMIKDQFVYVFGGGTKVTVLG"
  pEC50: 9.08
- binder: "F2.70.2 human-murine chimeric antibody (antibody, human IgG1, lambda, V domains shown, Chimeric, human IgG1 / lambda) VH: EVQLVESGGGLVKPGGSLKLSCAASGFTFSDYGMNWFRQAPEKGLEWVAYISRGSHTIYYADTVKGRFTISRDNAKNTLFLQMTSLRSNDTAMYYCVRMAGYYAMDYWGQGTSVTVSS VL: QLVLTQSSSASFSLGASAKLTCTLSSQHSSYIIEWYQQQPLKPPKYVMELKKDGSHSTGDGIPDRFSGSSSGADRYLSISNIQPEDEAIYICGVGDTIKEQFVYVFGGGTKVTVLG"
  pEC50: 9.46
- binder: "F2.42.9 human-murine chimeric antibody (antibody, human IgG1, lambda, V domains shown, Chimeric, human IgG1 / lambda; VL tied by name) VH: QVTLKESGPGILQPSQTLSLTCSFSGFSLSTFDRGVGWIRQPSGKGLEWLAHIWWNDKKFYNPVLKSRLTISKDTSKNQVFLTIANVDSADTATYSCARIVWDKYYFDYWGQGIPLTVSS VL: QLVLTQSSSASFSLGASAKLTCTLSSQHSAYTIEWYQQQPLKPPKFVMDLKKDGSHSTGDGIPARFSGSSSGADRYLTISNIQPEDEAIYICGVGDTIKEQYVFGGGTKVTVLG"
  pEC50: 9.48
- binder: "F2.343.16 human-murine chimeric antibody (antibody, human IgG1, lambda, V domains shown, Chimeric, human IgG1 / lambda; VL tied by name) VH: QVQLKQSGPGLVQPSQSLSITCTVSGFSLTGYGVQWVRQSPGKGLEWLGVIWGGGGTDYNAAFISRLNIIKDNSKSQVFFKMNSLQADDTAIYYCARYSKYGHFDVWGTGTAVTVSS VL: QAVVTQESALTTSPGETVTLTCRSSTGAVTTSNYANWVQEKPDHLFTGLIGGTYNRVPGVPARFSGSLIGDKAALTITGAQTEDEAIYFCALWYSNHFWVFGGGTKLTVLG"
  pEC50: 9.10
- binder: "HA22-hIgG1 (antibody, V domains shown) VH: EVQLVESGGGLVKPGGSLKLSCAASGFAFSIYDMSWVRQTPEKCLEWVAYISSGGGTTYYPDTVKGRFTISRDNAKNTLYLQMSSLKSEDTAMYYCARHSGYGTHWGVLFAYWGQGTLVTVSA VL: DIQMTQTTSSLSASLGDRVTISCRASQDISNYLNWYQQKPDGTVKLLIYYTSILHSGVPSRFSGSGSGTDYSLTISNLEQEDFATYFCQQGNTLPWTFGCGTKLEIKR"
  pEC50: 9.15
- binder: "F2.180.16 human-murine chimeric antibody (antibody, human IgG1, lambda, V domains shown, Chimeric, human IgG1 / lambda) VH: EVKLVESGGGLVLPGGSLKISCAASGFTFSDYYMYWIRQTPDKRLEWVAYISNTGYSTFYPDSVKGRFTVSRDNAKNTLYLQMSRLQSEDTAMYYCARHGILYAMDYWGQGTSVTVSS VL: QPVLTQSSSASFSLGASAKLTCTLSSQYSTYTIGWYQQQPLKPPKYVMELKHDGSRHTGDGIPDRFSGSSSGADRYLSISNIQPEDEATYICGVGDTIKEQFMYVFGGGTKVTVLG"
  pEC50: 9.06
- binder: "F2.151.13 human-murine chimeric antibody (antibody, human IgG1, lambda, V domains shown, Chimeric, human IgG1 / lambda) VH: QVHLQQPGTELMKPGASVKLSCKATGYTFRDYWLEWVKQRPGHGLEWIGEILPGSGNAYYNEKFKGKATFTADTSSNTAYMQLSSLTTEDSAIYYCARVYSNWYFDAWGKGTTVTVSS VL: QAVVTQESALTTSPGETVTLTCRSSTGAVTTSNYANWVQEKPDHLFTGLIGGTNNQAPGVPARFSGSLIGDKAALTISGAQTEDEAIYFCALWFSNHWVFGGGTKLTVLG"
  pEC50: 8.90
- binder: "F2.104.10 human-murine chimeric antibody (antibody, human IgG1, lambda, V domains shown, Chimeric, human IgG1 / lambda) VH: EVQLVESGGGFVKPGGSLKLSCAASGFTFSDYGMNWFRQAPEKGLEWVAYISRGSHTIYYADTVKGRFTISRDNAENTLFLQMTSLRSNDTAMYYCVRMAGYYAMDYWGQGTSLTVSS VL: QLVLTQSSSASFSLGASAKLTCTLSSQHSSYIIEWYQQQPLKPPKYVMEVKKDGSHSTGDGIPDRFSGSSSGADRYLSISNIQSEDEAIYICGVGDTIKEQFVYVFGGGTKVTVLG"
  pEC50: 9.40
